Test System: T1, human TREM2 (human) (UniProt Q9NZC2)
T1 sequence (looked up): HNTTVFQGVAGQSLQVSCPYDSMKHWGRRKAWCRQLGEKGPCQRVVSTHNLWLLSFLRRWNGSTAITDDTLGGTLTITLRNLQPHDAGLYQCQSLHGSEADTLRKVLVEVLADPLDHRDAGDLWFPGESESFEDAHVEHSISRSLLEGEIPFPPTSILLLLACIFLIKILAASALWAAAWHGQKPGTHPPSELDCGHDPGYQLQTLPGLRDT
Run Description: 1st screen, 10 nM Ab
Below, each entry is listed with its recorded Binding Signal (fold over 6E7 parental antibody).
Measured Parameter: Binding Signal (fold over 6E7 parental antibody) (fold)

6E7 variant V75 (antibody, V domains shown) VH: EVQLVQSGAEVKKPGESLKISCKGSGYSFTSYWIAWVRQMPGKGLEWMGIIYPGDSDTRYSPSFQGQVTISADKSISTAYLQWSSLKASDTAMYFCARGRTFYYDSSDYFDYWGQGTLVTVSS VL: DIQMTQSPSSVSASVGDRVTITCRASQGISSWLAWYQQKPGKAPKLLIYAASSLQAGVPSRFSGSGSGTDFTLTISSLQPEDFATYFCQQADSYPRTFGQGTKLEIK: 4.64
6E7 variant V39 (antibody, V domains shown) VH: EVQLVQSGAEVKKPGESLKISCKGSGYSFGSYWIAWVRQMPGKGLEWMGIIYPGDSDTRYNPSFQGQVTISADKSISTAYLQWSSLKASDTAMYFCARGRTFYYDSSDYFDYWGQGTLVTVSS VL: DIQMTQSPSSVSASVGDRVTITCRASQGISSWLAWYQQKPGKAPKLLIYAASSLVNGVPSRFSGSGSGTDFTLTISSLQPEDFATYFCQQADSSPRTFGQGTKLEIK: 6.15
6E7 variant V14 (antibody, V domains shown) VH: EVQLVQSGAEVKKPGESLKISCKGSGYSFGSYWIAWVRQMPGKGLEWMGIIYPGDQDTRYSPSFQGQVTISADKSISTAYLQWSSLKASDTAMYFCARGRTFYYDSSDYFDYWGQGTLVTVSS VL: DIQMTQSPSSVSASVGDRVTITCRASQGISSWLAWYQQKPGKAPKLLIYAASRLQNGVPSRFSGSGSGTDFTLTISSLQPEDFATYFCQQADSFPRTFGQGTKLEIK: 4.71

FYI, the data here is from patent US20260250381A1.
